system: Escherichia coli TOP10; test: shrunken log2 fold change of peptide-encoding DNA abundance (4.5 h post-induction vs induction); higher = less antimicrobial activity (less host growth inhibition); settings: time post-induction: 4.5 h; library: site-saturation at positions 5, 18, 19, 20;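 further: peptides expressed intracellularly from a pBAD plasmid library in pooled LB shake-flask culture, induced with 0.3% L-arabinose, DNA abundance read by NGS, three biological replicates, DESeq2 with apeglm shrinkage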
Below is a list of entries, each paired with its recorded shrunken log2 fold change value.
recorded-metric: shrunken log2 fold change

1. RRIRKRPPRLPRPRPRPIMYPRP :: 0.0532
2. RRIRQRPPRLPRPRPRPWCHPRP :: -0.169
3. RRIRKRPPRLPRPRPRPNTIPRP :: 0.0945
4. RRIRCRPPRLPRPRPRPAWHPRP :: 0.182
